Collected melting point values appear next to each entry.

// known answers, use as guide
Compound	Metric	Data value
COc1ccc(C(=O)/C=C/c2ccc(OC)c(F)c2)c(OC)c1 [Compound 21]	melting point	85 to 86 °C
O=C(/C=C/c1cc(F)cc(F)c1)c1ccc(Cl)cc1 [Compound 23a]	melting point	123.6 to 124 °C
COc1ccccc1C(=O)/C=C/c1ccc([N+](=O)[O-])cc1 [Compound 5a]	melting point	116.5 to 118 °C

// below: melting point requested for another compound
Query: Recorded melting point of CC(C)(C)C(=O)/C=C/c1ccc(Cl)cc1 [Compound 1] , please.
Reply: 85 to 85.5 °C
